# CONDITIONS: in isopropanol, 278.15 K

ENTRY SMILES: CCCCS(=O)(=O)N[C@@H](Cc1ccc(OCCCCC2CCNCC2)cc1)C(=O)O
solubility (mole fraction): 7.48e-05

====

# CONDITIONS: in ethanol, 313.15 K

ENTRY SMILES: CCCCS(=O)(=O)N[C@@H](Cc1ccc(OCCCCC2CCNCC2)cc1)C(=O)O
solubility (mole fraction): 0.000373

====

# CONDITIONS: in ethanol, 283.15 K

ENTRY SMILES: CCCCS(=O)(=O)N[C@@H](Cc1ccc(OCCCCC2CCNCC2)cc1)C(=O)O
solubility (mole fraction): 0.000156

These measurements were taken from BigSolDB 2.1.
